# system_name: human glucagon receptor (human) (UniProt P47871)
# Sequence (P47871 26-477): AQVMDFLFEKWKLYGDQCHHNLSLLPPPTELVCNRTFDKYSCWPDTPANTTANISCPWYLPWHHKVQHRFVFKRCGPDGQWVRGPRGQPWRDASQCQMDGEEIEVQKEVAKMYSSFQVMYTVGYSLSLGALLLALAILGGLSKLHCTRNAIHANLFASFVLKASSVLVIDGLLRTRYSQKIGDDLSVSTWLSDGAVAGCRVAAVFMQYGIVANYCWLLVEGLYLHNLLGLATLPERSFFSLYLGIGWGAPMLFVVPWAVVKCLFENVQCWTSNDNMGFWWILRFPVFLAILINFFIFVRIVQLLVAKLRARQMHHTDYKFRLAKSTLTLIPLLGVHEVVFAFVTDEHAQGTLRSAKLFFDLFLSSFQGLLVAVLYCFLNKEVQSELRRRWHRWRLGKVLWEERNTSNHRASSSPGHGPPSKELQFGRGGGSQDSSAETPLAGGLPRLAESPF
# experimental_protocol: cell-based or functional assay
measured_attribute: Relative cAMP EC50 (nM)
Your answer should be a plain number; it is taken to be in nM.

Past entries and their recorded results:
{"binder": "YXQGTFTSDFSKXLDKKAQXAFIEYLAAGGPSSGEPPPSGE (synthetic construct; SITE 2: note = 2-Aminoisobutyric Acid; SITE 13: note = alpha-methyl-leucine; SITE 17: note = Lysine is chemically modified through conjugation of the epsilon-amino group of the Lysine side chain with (epsilon-K)2-(gamma-Glu)-CO-(CH2)18-CO2H; SITE 20: note = 2-Aminoisobutyric Aci) [Example 405]", "measured_attribute": "Relative cAMP EC50", "units_of_measure": "nM", "test_result": 15.5}
{"binder": "YXQGTXTSDYSILLDKKAQXAFIEYLEEGGPSSGAPPPSEG (synthetic construct; SITE 2: note = 2-Aminoisobutyric Acid; SITE 6: note = alpha-methyl-2-fluoro-L-phenylalanine; SITE 17: note = Lysine is chemically modified through conjugation of the epsilon-amino group of the Lysine side chain with (gamma-Glu)2-CO-(CH2)16-CO2H; SITE 20: note = 2-Aminoisobutyric) [Example 434]", "measured_attribute": "Relative cAMP EC50", "units_of_measure": "nM", "test_result": 2.84}
{"binder": "YXQGTXTSDXSILLDKKAQXAFIEYLEEGGPSSGAPPPSGTEE (non-natural residues (Aib, αMeF(2F), 4Pal); lipidated Lys; C-amide; synthetic construct; SITE 2: note = 2-Aminoisobutyric Acid; SITE 6: note = alpha-methyl-2-fluoro-L-phenylalanine; SITE 10: note = 3-(4-Pyridyl)-L-alanine; SITE 17: note = Lysine is chemically modified through conjugation of the epsilon-amino group of the Lysine side chain with (gamma-Glu)2-CO-(CH2)1) [Example 609]", "measured_attribute": "Relative cAMP EC50", "units_of_measure": "nM", "test_result": 6.46}
{"binder": "YXQGTFTSDXXIXLDXKAQXQFIQXLIEXGPSSGAPPPSGGGE (not fully specified; N-methyl Tyr, non-natural residues, acylation, C-terminal amide; synthetic construct; SITE 1: note = N-methyl-tyrosine; SITE 2: note = 2-Aminoisobutyric Acid; SITE 10: note = 3-(4-Pyridyl)-L-alanine; SITE 11: note = alpha-methyl-L-serine; SITE 13: note = alpha-methyl-leucine; SITE 16: note = L-ornithine; SITE 17: note = Lysine is chemically modified through conju) [Example 1135]", "measured_attribute": "Relative cAMP EC50", "units_of_measure": "nM", "test_result": 1.76}
{"binder": "YXQGTFTSDXSXXLDKKAQXAFIEXLIAGGPSSGEPPPSGS (Aib, 4Pal, Orn, αMeL, Me4Pal, αMeY; γGlu2-C18 diacid Lys; amide; synthetic construct; SITE 2: note = 2-Aminoisobutyric Acid; SITE 10: note = 3-(4-Pyridyl)-L-alanine; SITE 12: note = L-ornithine; SITE 13: note = alpha-methyl-leucine; SITE 17: note = Lysine is chemically modified through conjugation of the epsilon-amino group of the Lysine side chain with (gamma-Gl)) [Example 1014]", "measured_attribute": "Relative cAMP EC50", "units_of_measure": "nM", "test_result": 3.62}

Then this binder:
May I ask what Relative cAMP EC50 has been recorded for YXQGTXTSDXSIXLDKKAQXXFIEYLQEGGPSSGEPPPEGSEE (synthetic construct; SITE 2: note = 2-Aminoisobutyric Acid; SITE 6: note = alpha-methyl-2-fluoro-L-phenylalanine; SITE 10: note = 3-(4-Pyridyl)-L-alanine; SITE 13: note = alpha-methyl-leucine; SITE 17: note = Lysine is chemically modified through conjugation of the epsilon-amino group of the Lysine) [Example 653 (SEQ ID NO: 659)] ?
7.29

Data origin, for the record: patent US20240270821A1
